- target: T1, human VEGF-A residues 27-191 of Accession #AAV38412 (human, UniProt P15692 27-191)
- T1 construct: range 27-191
- T1 sequence (P15692 other isoform, or with tags, fused parts or gaps limits assumed): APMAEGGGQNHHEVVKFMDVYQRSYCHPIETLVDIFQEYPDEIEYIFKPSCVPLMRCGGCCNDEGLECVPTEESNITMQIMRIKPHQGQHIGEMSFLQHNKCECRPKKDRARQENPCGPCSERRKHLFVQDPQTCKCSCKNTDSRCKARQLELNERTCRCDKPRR
- assay.procedure: BIAcore SPR, KD WT/KD mutant
// reported affinity improvement for each item listed
# number only, unit fold dropped from output

1. T30 R (anti-VEGF IgG) (antibody, V domains shown, copies: 2 + 2) VH: EVQLVESGGGLVQPGGSLRLSCAASGYTFRNYGMNWVRQAPGKGLEWVGWINTYTGEPTYAADFKRRFTFSLDTSKSTAYLQMNSLRAEDTAVYYCAKYPHYYGSSHWYFDVWGQGTLVTVSS VL: DIQMTQSPSSLSASVGDRVTITCSASQDISNYLNWYQQKPGKAPKVLIYFTSSLHSGVPSRFSGSGSGTDFTLTISSLQPEDFATYYCQQYSTVPWTFGQGTKVEIK | 1.3

Returns the measured affinity improvement for the input binder. Input: 95 (antibody, human IgG1, V domains shown) VH: EVQLVESGGGLVQPGGSLRLSCAASGYTFTNYGMNWVRQAPGKGLEWVGWINTYTGEPTYAADFKRRFTFSLDTSKSTAYLQMNSLRAEDTAVYYCAKYPDYYGSSHWYFDVWGQGTLVTVSS VL: DIQMTQSPSSLSASVGDRVTITCSASQDISNYLNWYQQKPGKAPKVLIYFTSSLHSGVPSRFSGSGSGTDFTLTISSLQPEDFATYYCQQYSTVPWTFGQGTKVEIKR
0.4

Please do the same for T30 N (anti-VEGF IgG) (antibody, V domains shown, copies: 2 + 2) VH: EVQLVESGGGLVQPGGSLRLSCAASGYTFNNYGMNWVRQAPGKGLEWVGWINTYTGEPTYAADFKRRFTFSLDTSKSTAYLQMNSLRAEDTAVYYCAKYPHYYGSSHWYFDVWGQGTLVTVSS VL: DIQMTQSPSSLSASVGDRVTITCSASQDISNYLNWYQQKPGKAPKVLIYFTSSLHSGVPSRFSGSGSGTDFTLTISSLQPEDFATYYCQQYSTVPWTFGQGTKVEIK as well.
1.7
